Read-out: Interleukin-8 (IL8), CXCL8 (gene 3576)
assayRemarks: BSK_SAg_IL8: BioMAP Diversity Plus: SAg Assay for Interleukin-8 (IL8) Biomarker Activity (AID 2283094)
condition: primary human HUVEC with PBMC; actives raise or lower the signal
The source made the active and inactive calls. How the source made its calls: active means hit-call score of the fitted dose curve at least 0.9, where 1 is the maximum; inactive means score below 0.9.
Outcomes: active, inactive

1) CCCCCCCCc1ccc(Nc2ccc(CCCCCCCC)cc2)cc1 | inactive
2) C/C=C\C/C=C/CCCCCCCCOC(C)=O | inactive
3) CC(C)C(=O)C(C)C | inactive
4) S=C(NC1CCCCC1)NC1CCCCC1 | inactive
5) COc1ccc2nc(N)sc2c1 | inactive
6) C=CCOCC(O)CCl (configuration not stated) | inactive
7) COCc1c(C(C)C)nc(C(C)C)c(/C=C/[C@@H](O)C[C@@H](O)CC(=O)O)c1-c1ccc(F)cc1 | active

###

assayRemarks: ACEA_ER_AUC_viability: ACEA Biosciences xCELLigence Real-Time Cell Analysis on Estrogen Receptor Agonism for Viability (AID 2283782);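 further: continuous compound exposure with impedance area under curve over 80 h; hit means loss of impedance signal meaning reduced cell growth or viability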
Records with an inconclusive call do not appear. Calls of active or inactive are those of the source. The calls were made as follows: active = hit-call score of the fitted dose curve at least 0.9, where 1 is the maximum; inconclusive = response in the unintended direction; inactive = score below 0.9.
Outcomes: active, inactive

1. CC=CCO | inactive
2. CCCCC/C=C\CCC=O | inactive
3. C=C(C)c1cccc(C(C)(C)N=C=O)c1 | inactive
4. c1c[nH]cn1 | inactive
5. NC(CO)(CO)CO | inactive
6. CCCC(C)CCC(C)=O (configuration not stated) | inactive
7. CC(C)CCCC(C)CC=O (configuration not stated) | inactive
8. CC(C)=CCC[C@H](C)CCO | inactive
9. Cn1c(=O)[nH]c2ncn(C)c2c1=O | inactive
10. O=C1C(N(CO)C(=O)NCO)N(CO)C(=O)N1CO (configuration not stated) | inactive
11. CC(C)(C)c1ccc(N)cc1 | inactive
12. S=C(NC1CCCCC1)NC1CCCCC1 | inactive
13. Oc1ccc(Cl)cc1Cc1cc(Cl)ccc1O | active
14. CCCCCCCCC(=O)OCC | active
15. CC(C)=CCC/C(C)=C\C#N | inactive
16. Cc1cc(C)c(C)c(C)c1 | inactive
17. Cc1ccc(OC(=O)CC(C)C)cc1 | active
18. CC(=O)OCC(C)OC(C)=O (configuration not stated) | inactive
19. Cc1c(C)c([N+](=O)[O-])c(C(C)(C)C)c([N+](=O)[O-])c1C | inactive
20. CN(C)c1ccc(N=Nc2ccccc2C(=O)O)cc1 | active
21. CCCCOCCOC(=O)COc1nc(Cl)c(Cl)cc1Cl | inactive
22. CCCCCCCCCCCCCCCC(=O)OCC | inactive
23. CC(C)COC(=O)C=Cc1ccccc1 | inactive
24. CCCC(=O)OCc1ccccc1 | inactive
25. CCCCCCCOC(=O)CCC | inactive
26. CCCCC/C=C\C/C=C\CCCCCCCC(=O)OC | active
27. CCCCCc1ccc(Cl)cc1 | inactive
28. CC(=O)OCCC1CCCCC1 | inactive
29. CCOC(=O)Cc1cccc2ccccc12 | active
30. CC(CC=O)c1ccccc1 (configuration not stated) | active
31. CCOC(=O)CC | inactive
32. CC(C)c1ccc(C#N)cc1 | active
33. CC(C)CC(O)Cc1ccccc1 (configuration not stated) | inactive
34. O=C1CCCC1 | inactive
35. CC1=NN(c2cc(S(=O)(=O)O)ccc2Cl)C(=O)C1N=Nc1ccccc1 (configuration not stated) | inactive
36. CC(C)c1ccc(C=O)cc1 | inactive
37. CCN(CCC#N)c1ccc(N=Nc2c(Cl)cc([N+](=O)[O-])cc2Cl)cc1 | inactive
38. CCc1nccnc1C | inactive
39. C=COCCCC | inactive
40. O=C(C=Cc1ccccc1)OCc1ccccc1 | inactive
41. CC(=O)OC1C2(C)CCC(C2)C1(C)C (configuration not stated) | inactive
42. Nc1ccc(Cl)cc1Cl | active
43. O=S1(=O)OC(c2ccc(O)cc2)(c2ccc(O)cc2)c2ccccc21 | inactive
44. COC(=O)c1c(C)cc(O)c(C)c1O | inactive
45. CCCCCCOC(=O)C(C)CC (configuration not stated) | active
46. C=C1[C@H]2CC[C@@H]3[C@H]2C(C)(C)CCC[C@]13C | inactive
47. CCC(CC)C(=O)O | inactive
48. COc1ccc2nc(N)sc2c1 | inactive
49. OCCc1ccncc1 | inactive
50. O=C(O)CCCC[C@@H]1SC[C@@H]2NC(=O)N[C@@H]21 | inactive
51. CCCCCCCC[N+](C)(CCCCCCCC)CCCCCCCC | active
52. COc1cc(C)ccc1C(C)C | inactive
53. Cc1cccc(C(=O)O)c1 | inactive
54. Cc1cccc(N)n1 | inactive
55. CC/C=C\C/C=C\C/C=C\CCCCCCCC(=O)O | inactive
56. CCO[Si](C)(OCC)OCC | inactive
57. O=S(=O)(O)c1ccccc1C=Cc1ccc(-c2ccc(C=Cc3ccccc3S(=O)(=O)O)cc2)cc1 | inactive
58. OC1CCCCCCCCCCC1 | inactive
59. O=C1CCCCCCCCCCC(=O)OCCO1 | active
60. CCCCCCCCCCCCCOP(=O)(O)O | active
61. C/C=C\C/C=C/CCCCCCCCOC(C)=O | active
62. CC1(C)S[C@@H]2[C@H](NC(=O)COc3ccccc3)C(=O)N2[C@H]1C(=O)O | inactive
